Provenance of the data: patent US8247211B2

- System: Staphylococcus sp.
- Assay summary: In vitro antibacterial evaluation: minimum inhibitory concentration (MIC), broth dilution method
- Format: cell-based
- Assay context: Staphylococcus aureus (GC 1131); broth dilution, 18 hours at 35° C.
Numbered stars: 1 amine (or outer) side, 2 acyl side, 3 side chain; on linkers, the order of the positions; unused ones are H or OH. Square brackets hold non-standard residues; d marks the D form. Peptide text beside a SMILES is read from it. * marks the point of attachment. ξ: configuration not given here. X1 = N=C1NCC(C(O)C(N[*:1])C(=O)[*:2])N1C1OC(CO)C(O)C(O)C1O; ξEnduracididine(βξ-OH,4'ξ) = N=C1NCC(C(O)C(N)C(=O)O)N1; X2 = OCC1OC(OC2C(CO)OC(*)C(O)C2O)C(O)C(O)C1O; Cha = N[CH](CC1CCCCC1)C(=O)O
Kindly state MIC Staphylococcus aureus (GC 1131) for each of the entries shown.

Enter MIC Staphylococcus aureus (GC 1131) (test system Staphylococcus sp.) for N=C1NCC(C(O)C2NC(=O)C(Cc3ccc(OC4OC(CO)C(OC5OC(CO)C(O)C(O)C5O)C(O)C4O)cc3)NC(=O)C(CC3CCCCC3)NC(=O)CNC(=O)C(CO)NC(=O)C(C(O)C3CNC(=N)N3C3OC(CO)C(O)C(O)C3O)NC2=O)N1 (stereo not drawn) [Example 263] (cyclo(G[Cha]Y(X2)[ξEnduracididine(βξ-OH,4'ξ)][X1]S); configuration not given here)
64 µg/mL

Enter MIC Staphylococcus aureus (GC 1131) (test system Staphylococcus sp.) for CC(C)CC(=O)OC1C(O)C(CO)OC(OC2C(CO)OC(Oc3ccc(CC4NC(=O)C(C(C)c5ccc(Cl)cc5)NC(=O)CNC(=O)C(CO)NC(=O)C(C(O)C5CNC(=N)N5C5OC(CO)C(O)C(O)C5O)NC(=O)C(C(O)C5CNC(=N)N5)NC4=O)cc3)C(O)C2O)C1O (stereo not drawn) [Example 262b]
4 µg/mL

Enter MIC Staphylococcus aureus (GC 1131) (test system Staphylococcus sp.) for N=C1NCC(C(O)C2NC(=O)C(Cc3ccc(O)cc3)NC(=O)C(Cc3ccccc3)NC(=O)CNC(=O)C(CO)NC(=O)C(C(O)C3CNC(=N)N3C3OC(CO)C(O)C(O)C3O)NC2=O)N1 (stereo not drawn) [Example 279a] (cyclo(GFY[ξEnduracididine(βξ-OH,4'ξ)][X1]S); configuration not given here)
>64 µg/mL

Enter MIC Staphylococcus aureus (GC 1131) (test system Staphylococcus sp.) for CC(C)CC(=O)OC1C(O)C(CO)OC(OC2C(CO)OC(Oc3ccc(CC4NC(=O)C(C(C)c5cccs5)NC(=O)CNC(=O)C(CO)NC(=O)C(C(O)C5CNC(=N)N5C5OC(CO)C(O)C(O)C5O)NC(=O)C(C(O)C5CNC(=N)N5)NC4=O)cc3)C(O)C2O)C1O (stereo not drawn) [Example 265b]
32 µg/mL

Enter MIC Staphylococcus aureus (GC 1131) (test system Staphylococcus sp.) for CC(C)CC(=O)OC1C(O)C(CO)OC(OC2C(CO)OC(Oc3ccc(CC4NC(=O)C(C(C)c5cccc(F)c5)NC(=O)CNC(=O)C(CO)NC(=O)C(C(O)C5CNC(=N)N5C5OC(CO)C(O)C(O)C5O)NC(=O)C(C(O)C5CNC(=N)N5)NC4=O)cc3)C(O)C2O)C1O (stereo not drawn) [Example 264b]
8 µg/mL

Enter MIC Staphylococcus aureus (GC 1131) (test system Staphylococcus sp.) for CC(C)CC(=O)OCC1OC(OC2C(CO)OC(Oc3ccc(CC4NC(=O)C(Cc5ccccc5)NC(=O)CNC(=O)C(CO)NC(=O)C(C(O)C5CNC(=N)N5C5OC(CO)C(O)C(O)C5O)NC(=O)C(C(O)C5CNC(=N)N5)NC4=O)cc3)C(O)C2O)C(O)C(O)C1O (stereo not drawn) [Example 283c]
32 µg/mL

Enter MIC Staphylococcus aureus (GC 1131) (test system Staphylococcus sp.) for CC(=O)OCC1OC(OC2C(CO)OC(Oc3ccc(CC4NC(=O)C(C(C)c5ccccc5)NC(=O)CNC(=O)C(CO)NC(=O)C(C(O)C5CNC(=N)N5C5OC(CO)C(O)C(O)C5O)NC(=O)C(C(O)C5CNC(=N)N5)NC4=O)cc3)C(O)C2O)C(O)C(OC(=O)CCC(C)C)C1O (stereo not drawn) [Example 270b]
8 µg/mL

Enter MIC Staphylococcus aureus (GC 1131) (test system Staphylococcus sp.) for CC(c1ccccc1)C1NC(=O)CNC(=O)C(CO)NC(=O)C(C(O)C2CNC(=N)N2C2OC(CO)C(O)C(O)C2O)NC(=O)C(C(O)C2CNC(=N)N2)NC(=O)C(Cc2ccc(OC3OC(CO)C(OC4OC(CO)C(O)C(O)C4O)C(O)C3O)cc2N)NC1=O (stereo not drawn)
>64 µg/mL

Enter MIC Staphylococcus aureus (GC 1131) (test system Staphylococcus sp.) for CCC(C)C(=O)OC1C(CO)OC(OC2C(CO)OC(Oc3ccc(CC4NC(=O)C(C(C)c5ccccc5)NC(=O)CNC(=O)C(CO)NC(=O)C(C(O)C5CNC(=N)N5C5OC(CO)C(O)C(O)C5O)NC(=O)C(C(O)C5CNC(=N)N5)NC4=O)cc3)C(O)C2O)C(O)C1O (stereo not drawn) [Example 278c]
8 µg/mL
